Data provenance: ChEMBL document CHEMBL2413056

- Test Description: Cytotoxicity against mouse 3T3L1 cells assessed as cell viability at 3 uM by CCK8 assay relative to control
- Assay type: cell-based
- Particulars: 3T3-L1 cells, read-out: Activity
Listed here are compounds together with their documented viability at 3 µM.
Give the value in % but do not write % after it.

Past entries and their recorded results:
Compound	Unit Abbrev	Readout Number
CC(C)CNC(=O)/C=C/C=C/CC/C=C/c1ccc2c(c1)OCO2 [RETROFRACTAMIDE A]	%	109
CC(C)NC(=O)/C=C/C=C/CC/C=C/c1ccc2c(c1)OCO2	%	96.6
CCCCNC(=O)/C=C/C=C/CC/C=C/c1ccc2c(c1)OCO2	%	87.1
CCCCCNC(=O)/C=C/C=C/CC/C=C/c1ccc2c(c1)OCO2	%	105
CCCNC(=O)/C=C/C=C/CC/C=C/c1ccc2c(c1)OCO2	%	102

Recorded viability at 3 µM for CC(C)CNC(=O)CCCCCCCCc1ccc2c(c1)OCO2 , please?
104

----------
Listed here are compounds together with their documented viability at 10 µM.
- Test Description: Cytotoxicity against mouse 3T3L1 cells assessed as cell viability at 10 uM by CCK8 assay relative to control
- Format: cell-based
- Particulars: 3T3-L1 cells, read-out: Activity
Give the value in % but do not write % after it.

Past entries and their recorded results:
Compound	viability at 10 µM [%]
CC(C)CNC(=O)/C=C/C=C/CC/C=C/c1ccc2c(c1)OCO2 [RETROFRACTAMIDE A]	108
CCCCNC(=O)/C=C/C=C/CC/C=C/c1ccc2c(c1)OCO2	69.3
CC(C)CNC(=O)CCCCCCCCc1ccc2c(c1)OCO2	111

Recorded viability at 10 µM for CCCNC(=O)/C=C/C=C/CC/C=C/c1ccc2c(c1)OCO2 , please?
87.5

Could you do the same for CC(C)NC(=O)/C=C/C=C/CC/C=C/c1ccc2c(c1)OCO2 , please?
96.1

Could you do the same for CCCCCNC(=O)/C=C/C=C/CC/C=C/c1ccc2c(c1)OCO2 , please?
99

----------
- Test Description: Cytotoxicity against mouse 3T3L1 cells assessed as cell viability at 1 uM by CCK8 assay relative to control
- Format: cell-based
- Particulars: 3T3-L1 cells, read-out: Activity
Listed here are compounds together with their documented viability at 1 µM.
Give the value in % but do not write % after it.

Past entries and their recorded results:
Compound	Readout Number
CCCNC(=O)/C=C/C=C/CC/C=C/c1ccc2c(c1)OCO2	104
CCCCNC(=O)/C=C/C=C/CC/C=C/c1ccc2c(c1)OCO2	94.8

Recorded viability at 1 µM for CC(C)CNC(=O)/C=C/C=C/CC/C=C/c1ccc2c(c1)OCO2 [RETROFRACTAMIDE A] , please?
98.1

Could you do the same for CC(C)NC(=O)/C=C/C=C/CC/C=C/c1ccc2c(c1)OCO2 , please?
94.8

Could you do the same for CC(C)CNC(=O)CCCCCCCCc1ccc2c(c1)OCO2 , please?
105

Could you do the same for CCCCCNC(=O)/C=C/C=C/CC/C=C/c1ccc2c(c1)OCO2 , please?
102

----------
- Test Description: Cytotoxicity against mouse 3T3L1 cells assessed as cell viability at 30 uM by CCK8 assay relative to control
- Assay type: cell-based
- Particulars: 3T3-L1 cells, read-out: Activity
Measure Name: viability at 30 µM (%)
Give the value in % but do not write % after it.

Compound	Unit Abbrev	viability at 30 µM
CC(C)NC(=O)/C=C/C=C/CC/C=C/c1ccc2c(c1)OCO2	%	102
CC(C)CNC(=O)CCCCCCCCc1ccc2c(c1)OCO2	%	109
CCCCNC(=O)/C=C/C=C/CC/C=C/c1ccc2c(c1)OCO2	%	78.7
CCCNC(=O)/C=C/C=C/CC/C=C/c1ccc2c(c1)OCO2	%	68.4
CC(C)CNC(=O)/C=C/C=C/CC/C=C/c1ccc2c(c1)OCO2 [RETROFRACTAMIDE A]	%	109

Recorded viability at 30 µM for CC(C)COC(=O)/C=C/C=C/CC/C=C/c1ccc2c(c1)OCO2 , please?
21.7

Could you do the same for CCCCCNC(=O)/C=C/C=C/CC/C=C/c1ccc2c(c1)OCO2 , please?
107

----------
- Test system: 3T3-L1
- Test Description: Adipogenetic activity in mouse 3T3L1 cells assessed as increase in triglyceride level at 10 uM relative to control
- Type: functional
Measure Name: Activity (%)
Give the value in % but do not write % after it.

Compound	Assay System	Measure Name	Readout Number
OC/C=C/C=C/CC/C=C/c1ccc2c(c1)OCO2	3T3-L1	Activity	0.6

Recorded Activity for O=C(/C=C/C=C/CC/C=C/c1ccc2c(c1)OCO2)N1CCCCC1 [DEHYDROPIPERNOLINE] , please?
21.6

Could you do the same for CCCCNC(=O)/C=C/C=C/CC/C=C/c1ccc2c(c1)OCO2 , please?
55.9

Could you do the same for CC(C)CNC(=O)/C=C/C=C/CC/C=C/c1ccc2c(c1)OCO2 [RETROFRACTAMIDE A] , please?
38

Could you do the same for CC(C)NC(=O)/C=C/C=C/CC/C=C/c1ccc2c(c1)OCO2 , please?
39.4

Could you do the same for CC(C)CNC(=O)CCCCCCCCc1ccc2c(c1)OCO2 , please?
13.3

Could you do the same for CCCNC(=O)/C=C/C=C/CC/C=C/c1ccc2c(c1)OCO2 , please?
42.7

Could you do the same for CCCCCNC(=O)/C=C/C=C/CC/C=C/c1ccc2c(c1)OCO2 , please?
55.4

Could you do the same for COC(=O)/C=C/C=C/CC/C=C/c1ccc2c(c1)OCO2 , please?
4.6

Could you do the same for CC(C)COC(=O)/C=C/C=C/CC/C=C/c1ccc2c(c1)OCO2 , please?
20

----------
Listed here are compounds together with their documented viability at 0.3 µM.
- Test Description: Cytotoxicity against mouse 3T3L1 cells assessed as cell viability at 0.3 uM by CCK8 assay relative to control
- Format: cell-based
- Particulars: 3T3-L1 cells, read-out: Activity
Give the value in % but do not write % after it.

Past entries and their recorded results:
Compound	Measure Name	Unit Abbrev	Readout Number
CCCCNC(=O)/C=C/C=C/CC/C=C/c1ccc2c(c1)OCO2	viability at 0.3 µM	%	96.2
CC(C)CNC(=O)CCCCCCCCc1ccc2c(c1)OCO2	viability at 0.3 µM	%	99.3
CC(C)CNC(=O)/C=C/C=C/CC/C=C/c1ccc2c(c1)OCO2 [RETROFRACTAMIDE A]	viability at 0.3 µM	%	100

Recorded viability at 0.3 µM for CC(C)NC(=O)/C=C/C=C/CC/C=C/c1ccc2c(c1)OCO2 , please?
95

Could you do the same for CCCCCNC(=O)/C=C/C=C/CC/C=C/c1ccc2c(c1)OCO2 , please?
98.7

Could you do the same for CCCNC(=O)/C=C/C=C/CC/C=C/c1ccc2c(c1)OCO2 , please?
101
